Measured values drawn from the supplement of paper PMC7411640 for this set.

# Tested on: MDA-MB-468
# Assay Notes: phospho-S6 immunofluorescence (DAPI-normalised), per-plate z-score; higher = higher phospho-S6 signal (less pathway suppression)
# Condition Set: co-treatment: vehicle; 24 h
Where a name gives a salt, the structure may show the parent alone.
Please go through the items and note down their phospho-S6 immunofluorescence (z-score).
Numbers only.

OCCOCCN1CCN(Cc2cccc(Oc3ccccc3)c2)CC1 (compound 10 µM) : -1.04
COc1ccc(CC(C)NCC(O)c2ccc(O)c(NC=O)c2)cc1 (configuration not stated) [Formoterol (Fumarate)] (compound 10 µM) : 0.16
C[C@@H]1C[C@H]2[C@@H]3CCC4=CC(=O)C=C[C@]4(C)[C@@]3(Cl)[C@@H](O)C[C@]2(C)[C@@]1(OC(=O)c1ccco1)C(=O)CCl [Mometasone furoate] (compound 10 µM) : -1.92
CC(C)Cc1ccc([C@@H](C)C(=O)NS(C)(=O)=O)cc1 [Reparixin] (compound 10 µM) : -1.14
CCC(N)(C(=O)O)c1ccc(C(=O)O)cc1 (configuration not stated) (compound 10 µM) : -0.54

Record phospho-S6 immunofluorescence (z-score) for all entries; do not skip any.
1. Cc1cccn2c(=O)c(C=C(C#N)c3nc4ccccc4s3)c(Oc3ccc(F)cc3)nc12 (compound 10 µM)
2. COc1cc2nc(N3CCN(C(=O)C4CCCO4)CC3)nc(N)c2cc1OC (configuration not stated) [Terazosin (hydrochloride dihydrate)] (compound 10 µM)

Found:
1. -0.48
2. 0.87

----------
Please respond with reported phospho-S6 immunofluorescence (z-score) for every item in the list.
# Tested on: MDA-MB-468
# Assay Notes: phospho-S6 immunofluorescence (DAPI-normalised), per-plate z-score; higher = higher phospho-S6 signal (less pathway suppression)
# Condition Set: co-treatment: lapatinib 1 uM; 24 h
Counter-ions that a name gives are not always drawn.

The following compounds have reported results that may help.
C[C@]12C=CC(=O)C=C1CC[C@H]1[C@@H]3C[C@@H](O)[C@](O)(C(=O)CO)[C@@]3(C)C[C@H](O)[C@@]12F [Triamcinolone] (compound 10 µM) : 0.82
CC(C(=O)Nc1cc(C#N)ccc1CCCC(=O)O)c1ccc(F)c2ccccc12 (configuration not stated) (compound 10 µM) : -2.8
COc1cc(N)c(Cl)cc1C(=O)NC1CCN(Cc2ccccc2)CC1 [Clebopride (malate)] (compound 10 µM) : -0.14

Can you give me phospho-S6 immunofluorescence (z-score) for all of these, one by one?
1. O=C1CCC(c2ccccc2)(C2CCN(Cc3ccccc3)CC2)C(=O)N1 (configuration not stated) [Benzetimide (hydrochloride)] (compound 10 µM)
2. Nc1nc(CC(=O)Nc2ccc(CCNC[C@H](O)c3ccccc3)cc2)cs1 [Mirabegron] (compound 10 µM)

Found:
[-0.15, 1.75]

----------
# Test system: MDA-MB-468
# Assay Notes: phospho-S6 immunofluorescence (DAPI-normalised), per-plate z-score; higher = higher phospho-S6 signal (less pathway suppression)
# Condition Set: co-treatment: vehicle; 24 h
Counter-ions that a name gives are not always drawn.
Rule: phospho-S6 immunofluorescence (z-score) of 0.3 or more gives yes (1); anything lower gives no (0).

Examples from the recorded data:
COc1ccccc1N1CCN(CCN(C(=O)C2CCCCC2)c2ccccn2)CC1 (compound 10 µM) : no (0)
COc1cc(C(=O)NCc2ccc(OCCN(C)C)cc2)cc(OC)c1OC [Trimethobenzamide hydrochloride] (compound 10 µM) : yes (1)

Lookup: Would you say NC1=NCC2c3ccccc3Cc3ccccc3N12 (configuration not stated) [Epinastine] (compound 10 µM) shows phospho-S6 immunofluorescence (z-score) at minimum 0.3?
Found: yes (1)

Lookup: Given Cc1noc(-c2ccc(-c3ccc(CC(=O)O)cc3)cc2)c1NC(=O)O[C@H](C)c1ccccc1 [AM095 (free acid)] (compound 10 µM) , state whether its phospho-S6 immunofluorescence (z-score) is at least 0.3.
Found: yes (1)

Lookup: Determine whether measured phospho-S6 immunofluorescence (z-score) meets or exceeds 0.3 for C=C[C@@]1(C)CC(=O)[C@]2(O)[C@@]3(C)[C@@H](O)CCC(C)(C)[C@@H]3[C@H](O)[C@H](OC(C)=O)[C@@]2(C)O1 [Forskolin] (compound 10 µM)
Found: no (0)

Lookup: State whether the measured phospho-S6 immunofluorescence (z-score) reaches 0.3, counting equality as reaching it, for CCCC(=O)Nc1ccc(OCC(O)CNC(C)C)c(C(C)=O)c1 (configuration not stated) [Acebutolol (hydrochloride)] (compound 10 µM)
Found: no (0)

Lookup: In plain terms: is recorded phospho-S6 immunofluorescence (z-score) at least 0.3 for CC(=O)OCC(=O)[C@@]1(O)[C@H](C)C[C@H]2[C@@H]3CCC4=CC(=O)C=C[C@]4(C)[C@@]3(F)[C@@H](O)C[C@@]21C [Dexamethasone (acetate)] (compound 10 µM) ?
Found: yes (1)
